# protocol-summary: amyloid nucleation score (Sup35N fusion, yeast selection) (log enrichment); library NNK2; higher = more nucleation; inactive = no reads after selection;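 note: zero at mode of non-aggregating sequences after 7 days selection at 30°C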
assay-metric: amyloid nucleation score

>>> print(df.to_string())
          residue_codes  obs_value
0             HVEHGNCFQ   inactive
1  DTMDSAAFTLHCIVWGYPVG   inactive
2  FDQSFFNLPQGTFLVLYSSA   inactive
3             GRKLMWSRF      0.004

* * *

# protocol-summary: amyloid nucleation score (Sup35N fusion, yeast selection) (log enrichment); library NNK1; higher = more nucleation; inactive = no reads after selection
assay-metric: amyloid nucleation score

In [3]: df
Out[3]:
          residue_codes  obs_value
0  CPMWYYCRSVLSSLAVSDCS   inactive
1  IRAFSWTIMLLFYCWWHVEN      0.402
2         REGWLITWRFNSW   inactive
3   RLVLILSYYVRWNWGREDN   inactive
4  FNHMLSMVGSRVCYLAMSFV       0.17
5  RSFTCVMDRSDVEVGQCLGS       -0.6
6  TIYTSSGVVMALVHRLHLVA       -1.1

* * *

# protocol-summary: amyloid nucleation score (Sup35N fusion, yeast selection) (log enrichment); library NNK1; higher = more nucleation; inactive = no reads after selection
assay-metric: amyloid nucleation score

>>> df
          residue_codes  obs_value
0             NRAMQVFPI   inactive
1              LFCFNRVD   inactive
2  TYWYSHINFLYYIASFVWSP   inactive

* * *

# protocol-summary: amyloid nucleation score (Sup35N fusion, yeast selection) (log enrichment); library NNK1; higher = more nucleation; inactive = no reads after selection
Please mark condition met if the recorded amyloid nucleation score is equal to or greater than 0.7, and condition not met if it falls below.

               substance     discrete_label
 0  APQFTKGFSEFGDLGAMRRA  condition not met
 1  FTVLSVVSALQGGRHYPLMG  condition not met
 2  ELSDTVFRRVCNLIVMVTPV      condition met
 3  IGDDLLGVFLYIETNSTPVF  condition not met
 4     FNRCMFHFGDEVVKELL  condition not met
 5  YWDGYEVDVNGVREYEGNAV  condition not met
 6  GHLENPFDERASCWRITADG      condition met
 7           HGIIHFVLQMW      condition met
 8  TSRSSVFRVAFHCGGSDSLV  condition not met
 9  CLFNSGFSDIGLRGMWGRKF  condition not met
10     RLFRTLGSDRGLFKEYF      condition met
11  GRNTGFFHFLWLFRYVTLVM  condition not met
12  YYFEVAVGQMSFTANVLVLS      condition met
13  INLCVPPRNVLFIDRCWTVV      condition met
14  HNLDCKRVGSARTWIEWWVG  condition not met
15                IRTVAR  condition not met
16              MGNHCLTR      condition met
17  ILSLIVFNYDYCSKVWNLLG  condition not met
18  GGQFHEEFSNEINEVQDCVL  condition not met
19            TVRNYHFVLV      condition met
20   DGVEFPFRMIESRFNGCQD  condition not met
21  MLHYAWVGLSVNDMVLPEMC  condition not met

* * *

# protocol-summary: amyloid nucleation score (Sup35N fusion, yeast selection) (log enrichment); library NNK2; higher = more nucleation; inactive = no reads after selection
assay-metric: amyloid nucleation score

               substance  obs_value
 0  KHMNAYCNVTYQIDFRCIIS   inactive
 1  FLWKRVVLSREEMAMDTTGS       5.47
 2        NKVMGAEGCTGLEL     -0.744
 3  TCIYSYRRNSCRIGCLRSWR      0.425
 4  TMYFILLCMLLRGFSSGPPP      -1.04
 5    CSKLFSRGPGLAFFQFFI   inactive
 6  GGDLNHHFAWTTNKMHDERR       4.54
 7  ICCRRSMPMIINDLNFMSNS       7.93
 8                AAAHLH      -0.75
 9                KRFYMT       1.31
10  SPFIRHLNGSICRDNYFYVG       3.03
11     FSLFCPWRKWLLDEVFM        0.5
12  NPGETDQRQSWSCSDCPAFS       1.51
13  LRAGLMHGWMRFRCTRVACV     -0.914
14  SFTCLLSFKQSCHSFMPCPC       1.03
15  YPVCGCRLSRLVHNSTVDKV      0.639
16  GNRDSLNMFVCDRILRCPVQ     -0.273
17  AVCITFLSSCAIFFDSPVRV       6.41
18  FITDYTWTYLHAWLFIHQGV     -0.705
19         RGQTMNHALRAHW      0.639
20  IRVFSDGAFKTEFTTKATLL      0.328
21  IGIDLVRSGSVIFPSPTWKV       4.41
22  CAGPPLLAKVGWIIMYSLVV      0.258

* * *

# protocol-summary: amyloid nucleation score (Sup35N fusion, yeast selection) (log enrichment); library NNK2; higher = more nucleation; inactive = no reads after selection
assay-metric: amyloid nucleation score

>>> df
              substance  obs_value
0  TLGTFVWVFRSFTCLLLEEQ       3.29
1  KELLMAIASWSRLSGDIAVD      -0.86
2  SCSISGMVVWDRMVKLSLSL     -0.317
3  MVWAQSTASMVLDLVFIAPS       1.75
4            MSFKDNYQPK     -0.707

* * *

# protocol-summary: amyloid nucleation score (Sup35N fusion, yeast selection) (log enrichment); library NNK2; higher = more nucleation; inactive = no reads after selection
Please mark Condition met if the recorded amyloid nucleation score is equal to or greater than 0.7, and Condition not met if it falls below.

In [3]: df
Out[3]:
               substance     discrete_label
 0   YNFDYTLMNYPLKAVPSEW      Condition met
 1    DSSRAVLGVIRYSSEGSL  Condition not met
 2             EARVSRLFT  Condition not met
 3  KWFSIMRPVRLVRFHWTGSN      Condition met
 4  ASGDGLNFWPFRSPTDAQRA      Condition met
 5  ATNNPVMNFAGLAKECFAYM  Condition not met
 6          WGCCGDLVYAIS  Condition not met
 7          MRSFGPIFSVLL  Condition not met
 8             YCALWTTTE      Condition met
 9  TRSHLFGYSVMGSSLIDSLY  Condition not met
10  KVSSLNCCVRCLDTMCAFQV      Condition met
11  YYWGAGTQHGYLFTFVGGND  Condition not met
12     LWMCKTFYGAGLSPVVK  Condition not met
13  VTCCVTSEWVGFLDWWSDRQ      Condition met
14               VYYLDSV      Condition met
15  ACTVWIMLRDSCWKARDRSG      Condition met
16              GSLAGAKL  Condition not met
17            SKSVWMRLVS  Condition not met
18       GTRYLRVSFNCAVRV      Condition met
19  THQRAYCFSSVYWVNVSKSG  Condition not met
20  ISIVYNSAMSIHHDFLILLC      Condition met
21  HLASFFSSVSYSSDLAYSGT  Condition not met
22  YNLSVFQVITAPHEGDNRAW      Condition met
23  VIEYRVFRKYPCNCFLRGLS  Condition not met
24         SPKRFTCSGDCSR  Condition not met
25               LVAALRV  Condition not met
26  LFVLLSDKTHSYSYAECQPM      Condition met
27            LNALIHYVER      Condition met
28            RVSESLPSTD  Condition not met
29  FCRIAATTRHMHGGLVGRWS      Condition met
30  WNAALKYKAHVGIDVSRCVP  Condition not met
31  YLVGCKDSRTSLSSLICIRL      Condition met
32  SASWGLQSYNSRCGRLTNRF  Condition not met
33  RNSLEFTDTRCNQPGQCESG  Condition not met
34  NLGGRFCAGFRRNHTCLGRN  Condition not met
35  VWYLFKNAFHMVFKTEWYEG  Condition not met
36    CGATQHSGTQVDLKLGFI  Condition not met
37               CFPPFLC  Condition not met
38  VYYIYQLEWSDVFFSAYGVH  Condition not met
39          PLMSLLPPPNTR  Condition not met
40  CARNTIAWVSNGMEFGSTGG  Condition not met
41       AYSDNTFRQCSISVL  Condition not met
42  SLMWDGANLYCMMVYSSVRN  Condition not met
43  ATYINLVINSKSARLFLICG      Condition met
44  VSDACRLDYLLAHILELGSM  Condition not met
45  VTAAIIVFCNGVLVRWTFIM  Condition not met
46   IWGCKELLDVRTAQGVDGM      Condition met
47  YREACCCNSFACPGATDVGP      Condition met
48  YSSTTITFYNWDRVTSRRLA  Condition not met
49  AFCTKCASMRAILRGGGLVW  Condition not met
50  FRAPFTDAGPWSSSGNFLRL  Condition not met
51  MLMRNFSNSNLLAENFMQMR  Condition not met
52    NCYSRALYSPCSPFLLTN  Condition not met
53   KRWQVLFDRSRKYCRVGKT  Condition not met
54  PYQLRVSLTLMLISGSLDIY  Condition not met
